A collection of sequences and their measured apparent KD of MS2 coat protein
Test system: MS2 coat protein
Assay: apparent KD of MS2 coat protein; higher = weaker reporter binding
Conditions: Eterna round: R107; input ligand: arginine 13.2 mM

Sequence Text	Quantity Unit	apparent KD of MS2 coat protein
UGUAUGUGAUCUGAUACCAGUCCAACUGGUAAAACCUGAGGAUCACCCUGGUAAAAUUGGGACCCUUGGCAGCAGAUCGCAUACU	nM	222
GGUGGAGGCGUGGGACUUGUCUGAACGGAUACCAGCCACAUCACGGGCCCUUGGCAGCUGUACAUGAGGAUCACCCAUGUCGGUC [Atestevete]	nM	33.6
AUCCCGUGAGCGGCCGCCACUGGAGGCUUUGCGCGACAUGAGGAUCACCCAUGUGUGCCCGGCGUUAGGACCGGGUUCGCGUGGA [#1 Same State - Tryptophan B Attempt #17 (HarryS)]	nM	29.3
AAUUUGUCGGGUGAUACCAGCCUCGGCGCAUCUCGCGCUGAACAUGAGGAUCACCCAUGUGGCCCUUGGCAGCACAUGACAAAUC [Veerdira]	nM	153
GCGCGCGCCGAAAGGCGCGCGUGUUGCGAUACCAGCCCGGAAACGGGCCCUUGGCAGCGCACAUGAGGAUCACCCAUGUCAUGUU [Exclusion - Theophylline A Attempt #1 (HarryS)]	nM	14.9
AGACAUGAGGAUCACCCAUGUAGUACGGAUACCAGAUCCAGAUGUAUCCCUUGGCAGCUGUGGUACAGCGUUACAUCGCUCGUAG [Exclusion - Theophylline A (Freestyle 21)]	nM	10.4
UGAGUUCGCUGAUGGGCUACGUCAGGUGAUACCAGCCACUCCCGCGGCCCUUGGCAGCACAUGAGGAUCACCCAUGUAGAGCUUG [Lazaceonus]	nM	17.9
CCGUCACAUGAGGAUCACCCAUGUGCGGAAGGAGCGGACGACAGUCCAGGUAGGUCGCCGUAUAGCCAAUGACCAGCAGUGUCGG [Betesotiqu]	nM	5.9
AGCACAUGAGGAUCACCCAUGUGUGGGUACCGAGGACCGGUACGGCCGCCACUCGCAGGACAUGAGGAUCACCCAUGUGCCGCCG [SSTA DOUBLE!!! :-D #7]	nM	19.7
GCAGACAUGAGGAUCACCCAUGUACUUGGGCGAGGACCGGUACGGCCGCCACUCGUAGACUUGACGAGGAAAUGUUCUCGCAGGG [theeternabot_sameState_MS2_Trp_A_24]	nM	22.1
AAUUCCUCACAUGAGGAUCACCCAUGUGAAGGAGCGCCGAAUAAGGCAGGUAGGUCGCACAUGGAAACCUCUACGAAAGUAGUAA [XArg-A 3 NuV1V2]	nM	16.5
UGUAUGGACUGAAGGAGCGCCUCAAAAUAGCUUGAGGAUCACCCAAGUAAGGCGAAAGCCGGGCAGGUAGGUCGCAGUCCAUACU [ArgBX 3]	nM	12.3

* * *

System: K4 kissing-loop RNA reporter
Test: apparent KD of K4 kissing-loop reporter; higher = weaker reporter binding
Conditions: Eterna round: R107; input ligand: theophylline 20 uM
A collection of sequences and their measured apparent KD of K4 kissing-loop reporter

Sequence Text	Assay System	apparent KD of K4 kissing-loop reporter, nM
UUGACCUACUCAGGAUAUCCGCAGUGAUGUUGCGGUUGGCCUGAGCGGCAUGAAAAUCUUACUACAGGAGAAGGGAGAGGGUUAC [Atusgeis]	K4 kissing-loop RNA reporter	72.9
AUUUAAUGUAUAGAUUAUAUACAUAAUUCAGAGGAUAUGCGAAGAAGCAGAAGGCUGGUUGCAGUGAUGUUGCUUUUAUAAUUUA [JR_SSFMNA_Sub009]	K4 kissing-loop RNA reporter	171
ACAGGAUCGAAGAUCCUGAGCAGUCAAAACCGAGGACCGGUACGGCCGCCACUCGGAGUGAUGUUCCGAAGACUGCAAAAUAAAA [#SwitchBubble 3]	K4 kissing-loop RNA reporter	1010

* * *

System: MS2 coat protein
Experiment: apparent KD of MS2 coat protein; designed switch direction (-1 OFF switch, 1 ON switch): 1; higher = weaker reporter binding
Details: input ligand: none
Please use y whenever apparent KD of MS2 coat protein is not below 200 nM, and n whenever it is.

Sequence Text	Category
GGUGCAAUAAACGCCUACAUGAGGAUCACCCAUGUAUGUAGGCAGGAUAUCGUUUGCAAAGCAAACGAGAAGGGCUAUAGUACC [Mat - Same State NG 3 - JL Mod - D44] (Eterna round: R96, puzzle: Same State NG 3)	n
ACGCAGCUAGGUGAGGAUAUCGGUGGUAAAACAUGAGGAUCACCCAUGUCCGAAGCUCGGACUUCCGAGAAGGCGCCCGGCUGCA [Velaberi] (Eterna round: R96, puzzle: Same State 2)	n
AACAAAUACACAGGAUAUACAGUGGCAACCACUGUAGAAGGGUGGGCGGGUUCCAACAUGAGGAUCACCCAUGUACCCAAUAAC [Atbiladi] (Eterna round: R96, puzzle: Same State NG 1)	y
GGAAUAUUUACAGGAUAUGUUUUGUUAAGUCGAGCAGAAGGGUAGAUGUCUUACACGGUUUGUUACAUGAGGAUCACCCAUGUC [SameState NG1 #16] (Eterna round: R96, puzzle: Same State NG 1)	n
AUAUGAGAAGCAGGAUAUGUGGAGAAGAAAGAAACAGAAGGGCUUAUGGGACAACAUGAGGAUCACCCAUGUUCUCUGUGAUGA [AK SSNG1-V2-2.1] (Eterna round: R96, puzzle: Same State NG 1)	n

* * *

System: K4 kissing-loop RNA reporter;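 further: bound reporter read as fluorescence of individual clusters on recovered sequencing chips by microscopy, with normalized cluster intensities fitted with a binding model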
Assay: apparent KD of K4 kissing-loop reporter; higher = weaker reporter binding
Details: Eterna round: R107; input ligand: tryptophan 2.4 mM

Sequence Text	Assay System	Quantity Unit	apparent KD of K4 kissing-loop reporter
UUGGACCUUAGCCUCAAUAGAACUUUGUUACGAGGACCGGUACGGCCGCCACUCGUCGGGCUCCGAUAGCCAGUGAUGUUGGCAA [theeternabot_sameState_KL_Trp_A_16]	K4 kissing-loop RNA reporter	µM	0.212
GGUAUCUAUACAGAUACCAGUCGUACGGCUGCAUUACAGGUUAGUGAUGUUAACCUGUACGACCCUUGGCAGCUGUAUAGUAGUA [#14 K4 Theophylline B Exclusion]	K4 kissing-loop RNA reporter	µM	0.104
GGACGCCGGUCGGCCGCCACUCACAGCAGCCAGUGAUGUUGGAUUGUAGCGGAGUGAUGUUCCGAGAGGACCGGGACUGCAGUCU [Same State Tryptophan B GF 11]	K4 kissing-loop RNA reporter	µM	0.137

* * *

System: MS2 coat protein
Assay: apparent KD of MS2 coat protein; designed switch direction (-1 OFF switch, 1 ON switch): 1; higher = weaker reporter binding
Settings: Eterna round: R95; input ligand: FMN 200 uM
A collection of sequences and their measured apparent KD of MS2 coat protein

Sequence Text	apparent KD of MS2 coat protein [nM]
CUGCUACAUGAGGAUCACCCAUGUUGGAGUAAUGCAGGAUAUGUGGGACCAGAAGAUAAAACAGAAGGGCAAGGAG [JR_SS!_Sub007] (puzzle: Same State 1)	18
AGUCCAGCGAAAGCUGGACAAAAGCAUGUACAUGAGGAUCACCCAUGUUCAUGUAUAAGCUUUUUGCUCGUUUUAAA [JL mod - D95 - 17] (puzzle: Sensor for hsa-mir-208a)	16.2
AACGUGGGCUAGCAGGAUAUACUGCGAGUAACAUGAGGAUCACCCAUGUUGUCCCGCAAGACAAUGUAGAAGGGCUGAUACCGCG [Atatlaor] (puzzle: Same State 2)	18.1

* * *

System: MS2 coat protein
Assay: apparent KD of MS2 coat protein; designed switch direction (-1 OFF switch, 1 ON switch): -1; higher = weaker reporter binding
Conditions: input ligand: FMN 200 uM
A collection of sequences and their measured apparent KD of MS2 coat protein

Sequence Text	Assay System	apparent KD of MS2 coat protein [nM]
AAAUUCUGAGGAUAUCGAUGUUUGUACAUGAGGAUCACCCAUGUCCUUUUUAUUUUUUCUCGAGAAGGCAGUGUAU [JR_E5_Sub100] (Eterna round: R96, puzzle: Exclusion 5)	MS2 coat protein	48.1
GAUGAGGUAGGAUAUACGAUAAUAUAGGGUAGAUAUAUAACACAUGAGGAUCACCCAUGUAGAAGGACCAGUAG [Mat - Exclusion 2 - Mod of my Tesla design - D66] (Eterna round: R96, puzzle: Exclusion 2)	MS2 coat protein	143
GCCUCACUUGAGGAUCACCCAAGUCAGGAUAUUCACUGAACUGCGUAGCAAUUCGGCCGAAGAAGGGAUUCGGG [Veala] (Eterna round: R97, puzzle: Exclusion 1)	MS2 coat protein	75.2

* * *

System: MS2 coat protein
Test: apparent KD of MS2 coat protein; higher = weaker reporter binding
Conditions: Eterna round: R107; input ligand: tryptophan 2.4 mM
Reported Property: apparent KD of MS2 coat protein

Sequence Text	Reported Measurement
AUCGUACCUGAUGAUACCAGCAUGUGAUCAUAACAUGAGGAUCACCCAUGUAAUCAGUGAUGCCCUUGGCAGCAUGAUCGGUACA [Same State - Theophylline B (Freestyle 13)]	56.7 nM
ACGAUAGCACAAGAGGAUCACCCUUGUGAUACCAGCCUGGAAACAGGCCCUUGGCAGCACACAAAUAAAUUGUAACUAUCGAAUA [TheoAX5 #MicroSwitchBubble #AlternativeMS2]	29.3 nM
UGACAUUGCUCAGAUACCAGACAUGAGGAUCACCCAUGUGCCAAAUAAACGUACAUAAAUGUCCCUUGGCAGCUGAGCAAUGUCU [TheoBX 11 #MS2Left #Theo2]	59.1 nM
UGAUCCUGCAGGGAUACCAGCGCCGCUAGAUAACUAUGCACAUGAGGAUCACCCAUGUAACGCCCUUGGCAGCCCAGCUAAAGGG [Same State Theophylline B GF22]	48.1 nM
CCUUACGUUGGGCAGCCAGUUCGAAGUGAUACCAGUCACAAAAGUGACCCUUGGCAGCACCGCACAUGAGGAUCACCCAUGUCUA [SSThA NP+V+V2 #8 Same Structure]	62.8 nM
